Assay: Tmax in Sprague-Dawley rat at 10 mg/kg, po by LC-MS/MS analysis
Type: ADME, organism-based
Details: in vivo
metric_name: Tmax (min)

item_smiles | unit_descriptor | val
COc1ccc2cc(C(=O)NCCN(C)C)oc2c1.CS(=O)(=O)O | min | 30

====

System: Rattus norvegicus
Test: Antiosteoporotic activity in Sprague-Dawley rat model of OVX-induced bone loss assessed as increase in trabecular bone volume at 30 mg/kg, ig administered for 3 months with 1 day break after 6 consecutive days administration
Format: functional, organism-based
Activity calls are given as the source filed them. The rule behind the calls is not given here.

item_smiles | target | Activity
COc1ccc2cc(C(=O)OCCCN(C)C)sc2c1 | Rattus norvegicus | Active
COc1ccc2cc(C(=O)NCCN(C)C)oc2c1 | Rattus norvegicus | Active
CCOC(=O)c1cc2ccc(OC)cc2o1 | Rattus norvegicus | Active
CC(=O)c1cc2ccccc2s1 | Rattus norvegicus | Active
COc1ccc2cc(C(=O)OCCP(=O)(O)O)oc2c1 | Rattus norvegicus | Active
COc1ccc2cc(C(=O)OCCN(C)C)oc2c1 | Rattus norvegicus | Active
O=C(OCCN1CCOCC1)c1cc2cc3c(cc2s1)OCO3 | Rattus norvegicus | Active

====

Readings of microsomal CLint at 0.5 h, 100 µM for the listed compounds
Test: in vitro
Settings: human, microsomes
Description: Metabolic stability in human liver microsomes assessed as intrinsic clearance at 100 uM measured per mg protein upto 30 mins

item_smiles | microsomal CLint at 0.5 h, 100 µM / µL/min/mg
CN(C)CCCOc1nn(Cc2ccccc2)c2ccccc12 | 16.1
O=C(O)Cc1ccccc1Nc1c(Cl)cccc1Cl | 197

====

Experiment: Solubility in PBS buffer at pH 7.4 assessed as precipitation of compound at 312.5 nM
Type: physicochemical
Conditions: pH 7.4, 0.3125 µM

item_smiles | solubility
COc1ccc2cc(C(=O)OCCCN(C)C)sc2c1 | Soluble
O=C(OCCN1CCOCC1)c1cc2cc3c(cc2s1)OCO3 | Soluble

====

Assay: AUC (0 to t) in Sprague-Dawley rat at 10 mg/kg, po by LC-MS/MS analysis
Format: ADME, organism-based
Design: dose 10 mg/kg
Details: in vivo

item_smiles | AUC(0-t) / ng·h/mL
COc1ccc2cc(C(=O)NCCN(C)C)oc2c1.CS(=O)(=O)O | 278

====

The reader will find reported Activity values listed item by item below.
Test: Permeability across apical to basolateral side in human Caco-2 cells assessed as […] yellow leakage at 10 uM incubated for 2 hrs LC-MS/MS analysis
Assay type: ADME, cell-based
Settings: caco-2, 2 h

compound | unit_descriptor | Activity
CC[C@H]1OC(=O)[C@H](C)[C@@H](O[C@H]2C[C@@](C)(OC)[C@@H](O)[C@H](C)O2)[C@H](C)[C@@H](O[C@@H]2O[C@H](C)C[C@H](N(C)C)[C@H]2O)[C@](C)(O)C[C@@H](C)C(=O)[C@H](C)[C@@H](O)[C@]1(C)O | % | 0.137
CCOC(=O)c1cc2ccc(OC)cc2o1 | % | 0.152
COc1ccc2cc(C(=O)NCCN(C)C)oc2c1.CS(=O)(=O)O | % | 0.158
CN/C(=N/CCSCc1nc[nH]c1C)NC#N | % | 0.134
CC(=O)c1cc2ccccc2s1 | % | 0.179
COCCc1ccc(OCC(O)CNC(C)C)cc1 (stereo unspecified) | % | 0.154

====

Test: MRT in Sprague-Dawley rat at 2 mg/kg, iv by LC-MS/MS analysis
Format: ADME, organism-based
Settings: in vivo

item_smiles | unit_descriptor | MRT
COc1ccc2cc(C(=O)NCCN(C)C)oc2c1.CS(=O)(=O)O | h | 2.85

====

Assay: Initial concentration in Sprague-Dawley rat at 2 mg/kg, iv by LC-MS/MS analysis
Type: ADME, organism-based
Settings: in vivo
metric_name: C0 (ng/mL)

item_smiles | metric_name | val
COc1ccc2cc(C(=O)NCCN(C)C)oc2c1.CS(=O)(=O)O | C0 | 17.2

====

Assay: Cmax in Sprague-Dawley rat at 10 mg/kg, po by LC-MS/MS analysis
Assay type: ADME, organism-based
Parameters: route oral, dose 10 mg/kg
Details: in vivo
metric_name: Cmax (ng/mL)

item_smiles | unit_descriptor | val
COc1ccc2cc(C(=O)NCCN(C)C)oc2c1.CS(=O)(=O)O | ng/mL | 54.2

====

Assay: Solubility in PBS buffer at pH 7.4 assessed as precipitation of compound at 2500 nM
Type: physicochemical
Settings: pH 7.4, 2.5 µM
metric_name: solubility

item_smiles | val
COc1ccc2cc(C(=O)OCCN(C)C)oc2c1 | Soluble
CCCCOC(=O)c1cc2ccc(OC)cc2s1 | Insoluble
COc1ccc2cc(C(=O)OCCCN(C)C)oc2c1 | Soluble
CN(C)CCCOC(=O)c1cc2cc3c(cc2s1)OCO3 | Insoluble
COc1ccc2cc(C(=O)NCCN(C)C)oc2c1 | Soluble
CN(C)CCOC(=O)c1cc2cc3c(cc2s1)OCO3 | Insoluble
CCOC(=O)c1cc2ccc(OC)cc2o1 | Insoluble
COc1ccc2cc(C(=O)N(C)CCN(C)C)oc2c1 | Soluble
CCOC(=O)c1cc2ccc(OC)cc2s1 | Insoluble
CN(C)CCNC(=O)c1cc2cc3c(cc2s1)OCO3 | Insoluble
COc1ccc2cc(C(=O)OCCCN(C)C)sc2c1 | Insoluble
CCOC(=O)c1cc2cc3c(cc2s1)OCO3 | Insoluble
COc1ccc2cc(C(=O)OCP(=O)(O)O)oc2c1 | Soluble

====

Target: Cytochrome P450 3A4 (Homo sapiens, UniProt P08684)
Sequence (P08684 whole entry): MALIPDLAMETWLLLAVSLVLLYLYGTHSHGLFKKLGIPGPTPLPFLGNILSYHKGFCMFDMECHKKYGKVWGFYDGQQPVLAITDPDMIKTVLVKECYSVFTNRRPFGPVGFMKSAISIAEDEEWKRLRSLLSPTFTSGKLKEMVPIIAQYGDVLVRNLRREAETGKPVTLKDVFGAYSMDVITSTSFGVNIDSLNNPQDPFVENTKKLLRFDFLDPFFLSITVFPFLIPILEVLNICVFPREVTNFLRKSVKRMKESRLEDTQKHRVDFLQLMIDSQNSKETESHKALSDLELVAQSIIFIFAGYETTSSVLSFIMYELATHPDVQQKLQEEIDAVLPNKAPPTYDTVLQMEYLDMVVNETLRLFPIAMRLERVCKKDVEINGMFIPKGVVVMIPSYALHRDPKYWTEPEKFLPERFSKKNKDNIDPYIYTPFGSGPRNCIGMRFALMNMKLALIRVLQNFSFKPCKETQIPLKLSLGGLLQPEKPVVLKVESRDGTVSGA
pIC50: −log10 of the molar value.
metric_name: pIC50

item_smiles | val
COc1ccc2cc(C(=O)NCCN(C)C)oc2c1.CS(=O)(=O)O | < 5.00

====

Test: Half life in Sprague-Dawley rat at 2 mg/kg, iv by LC-MS/MS analysis
Type: ADME, organism-based
Settings: in vivo

item_smiles | half-life [h]
COc1ccc2cc(C(=O)NCCN(C)C)oc2c1.CS(=O)(=O)O | 2.52

====

Experiment: Solubility in PBS buffer at pH 7.4 assessed as precipitation of compound at 5000 nM
Assay type: physicochemical
Conditions: pH 7.4, 5 µM

item_smiles | solubility
O=C(OCCN1CCOCC1)c1cc2cc3c(cc2s1)OCO3 | Insoluble
COc1ccc2cc(C(=O)OCCN(C)C)oc2c1 | Soluble
CCOC(=O)c1cc2cc3c(cc2s1)OCO3 | Insoluble
COc1ccc2cc(C(=O)NCCN(C)C)oc2c1 | Insoluble
COc1ccc2cc(C(=O)OCCCN(C)C)oc2c1 | Soluble
COc1ccc2cc(C(=O)OCCN3CCOCC3)oc2c1 | Soluble
COc1ccc2cc(C(=O)OCCCN(C)C)sc2c1 | Insoluble
COc1ccc2cc(C(=O)N(C)CCN(C)C)oc2c1 | Insoluble
COc1ccc2cc(C(=O)OCP(=O)(O)O)oc2c1 | Soluble
CN(C)CCCOC(=O)c1cc2cc3c(cc2s1)OCO3 | Insoluble
CCCCOC(=O)c1cc2ccc(OC)cc2s1 | Insoluble
CCOC(=O)c1cc2ccc(OC)cc2o1 | Insoluble
CCOC(=O)c1cc2ccc(OC)cc2s1 | Insoluble

====

Test: in vitro
Conditions: human, liver microsomes
Below, each of the compounds is paired with its reported microsomal CLint at 0.5 h, 100 µM value.
metric_name: microsomal CLint at 0.5 h, 100 µM (µL/min/mg)

compound | metric_name | modifier_sign | val
CCOc1ccc(NC(C)=O)cc1 | microsomal CLint at 0.5 h, 100 µM | = | 26.2
COCCc1ccc(OCC(O)CNC(C)C)cc1 (centres undefined) | microsomal CLint at 0.5 h, 100 µM | = | 4.35
COc1ccc2cc(C(=O)NCCN(C)C)oc2c1.CS(=O)(=O)O | microsomal CLint at 0.5 h, 100 µM | = | 6.73
CC(=O)c1cc2ccccc2s1 | microsomal CLint at 0.5 h, 100 µM | > | 300

====

Experiment: AUC (0 to t) in Sprague-Dawley rat at 2 mg/kg, iv by LC-MS/MS analysis
Assay type: ADME, organism-based
Set-up: dose 2 mg/kg
Details: in vivo

item_smiles | unit_descriptor | AUC(0-t)
COc1ccc2cc(C(=O)NCCN(C)C)oc2c1.CS(=O)(=O)O | ng·h/mL | 59.5

====

Assay: Solubility in PBS buffer at pH 7.4 assessed as precipitation of compound at 625 nM
Assay type: physicochemical
Settings: pH 7.4, 0.625 µM

item_smiles | solubility
COc1ccc2cc(C(=O)OCCN3CCOCC3)oc2c1 | Soluble
CCOC(=O)c1cc2ccc(OC)cc2o1 | Soluble
CCCCOC(=O)c1cc2ccc(OC)cc2s1 | Insoluble
COc1ccc2cc(C(=O)NCCN(C)C)oc2c1 | Soluble
COc1ccc2cc(C(=O)OCCCN(C)C)oc2c1 | Soluble
CCOC(=O)c1cc2cc3c(cc2s1)OCO3 | Insoluble
CN(C)CCNC(=O)c1cc2cc3c(cc2s1)OCO3 | Soluble
